# System: HCT-15 colon
# run-description: NCI tumour cell line growth inhibition, 48 h
measure-name: TGI

Summary: "O=[N+]([O-])c1ccc2sc(/C=N/c3ccccn3)cc2c1" , HCT-15 colon, TGI = > 100 µM

Summary: "Cc1ccc(-c2nc(-c3nccc4ccccc34)oc2-c2ccccc2)cc1" , HCT-15 colon, TGI = > 100 µM

Summary: COc1cc([C@@H]2c3cc4c(cc3[C@@H](OC(=O)c3cccc(N)c3)C3COC(=O)[C@@H]32)OCO4)cc(OC)c1O (stereo not given in full) , HCT-15 colon, TGI = > 52.6 µM

Summary: COc1ccccc1[As]=[As]c1ccccc1OC (stereo not given) , HCT-15 colon, TGI = 0.118 µM

Summary: O=C(CC1C(=O)Nc2ccccc2S1(=O)=O)Nc1ccc(Cl)cc1 (stereo not given) , HCT-15 colon, TGI = > 100 µM

----------
# Tested on: COLO 205 colon
# run-description: NCI tumour cell line growth inhibition, 48 h
Field: TGI. Provide a value for each of the compounds that follow.

So for "CCOC(=N)CC(=O)Nc1ccccc1" , the logged TGI turned out to be > 46.4 µM

So for "O=C1Cc2cc(CCn3cncn3)c(Cl)cc2N1" , the logged TGI turned out to be > 100 µM

So for "Clc1cccc(CNc2c3ccccc3nc3ccccc23)c1" , the logged TGI turned out to be 3.88 µM

So for "CCn1c(=O)c(C(=O)O)c(Cl)c2cc3c(cc21)OCO3" , the logged TGI turned out to be > 100 µM

So for COC1=C2CC(C)CC(OC)C(OC(=O)CN)[C@H](C)/C=C(\C)C(OC(N)=O)C(OC)/C=C\C=C(/C)C(=O)NC(=CC1=O)C2=O (stereo partly specified) , the logged TGI turned out to be 0.559 µM

So for "ClCC[N-]CC[N-]CCCl.ClCC[N-]CC[N-]CCCl.[O-][Cl+3]([O-])([O-])O.[Zn+2]" , the logged TGI turned out to be > 72.2 µM

So for COc1ccc2c(c1)C(OC)C1c3c(cc4c(c3-2)OCO4)CCN1C (stereo unspecified) , the logged TGI turned out to be > 43.6 µM

So for CC1=C(C(=O)Nc2ccc(F)c(Cl)c2)C(c2cccc(Oc3ccccc3)c2)NC(=S)N1 (stereo unspecified) , the logged TGI turned out to be > 50 µM

So for "Cc1ccc(Cl)c(NS(=O)(=O)c2ccc(-c3cnc(C4CC4)o3)cc2)c1" , the logged TGI turned out to be 1.36 µM

So for "Nc1ncc(-c2ccc3ncnc(N4CCc5ccc(Cl)cc54)c3c2)cc1C(F)(F)F" , the logged TGI turned out to be 30.5 µM

So for "COCN(C)c1nc(N(C)C)nc(N(C)C)n1" , the logged TGI turned out to be > 100 µM

So for NS(=O)(=O)c1ccc(NC(=O)C2C(=O)C(=O)N(c3ccc(S(N)(=O)=O)cc3)C2=O)cc1 (stereo unspecified) , the logged TGI turned out to be > 100 µM

So for "COc1ccc(/C=C/C(=O)c2c(-c3ccccc3)nn(C)c(=O)c2N2CCOCC2)cc1" , the logged TGI turned out to be > 100 µM

So for CCOC(=O)CSC1NC(C(=O)OC)CC1OC (stereo unspecified) , the logged TGI turned out to be > 100 µM

So for "CCC/C(Cl)=N/OC(NC(=O)OCC)(C(F)(F)F)C(F)(F)F" , the logged TGI turned out to be 36.9 µM

So for CC1=CP(=O)(c2ccccc2)C=C(C)C1=C(Cl)Cl (stereo unspecified) , the logged TGI turned out to be 16.4 µM

So for Clc1ccc2c(c1)N(C1CCCN(Cc3ccccc3)C1)c1ccccc1S2 (stereo unspecified) , the logged TGI turned out to be 10.1 µM

So for "Cc1ccc(/C=C/C(=O)c2sc(-n3nc(-c4ccccc4)cc3-c3ccccc3)nc2C)cc1" , the logged TGI turned out to be > 100 µM

So for "Cn1cc(C2=C(c3cn(CCCN)c4ccccc34)C(=O)NC2=O)c2ccccc21" , the logged TGI turned out to be 7.06 µM

So for "N#CC(C#N)=c1c2ccccc2c(=C(C#N)C#N)c2ccccc12" , the logged TGI turned out to be 37.5 µM

So for "O=S(=O)(O)c1ccc2c(N=Nc3ccc(S(=O)(=O)O)c4ccccc34)c(O)c(S(=O)(=O)O)cc2c1" , the logged TGI turned out to be > 100 µM

So for CC(=O)OCC1OC(NC(=O)N(CCCl)N=O)C(OC(C)=O)C(OC(C)=O)C1OC(C)=O (stereo unspecified) , the logged TGI turned out to be > 100 µM

So for O=C(Nc1ccccc1)OC1OC(COC(=O)c2ccccc2)C(OC(=O)c2ccccc2)C1OS(=O)(=O)c1ccc([N+](=O)[O-])cc1 (stereo unspecified) , the logged TGI turned out to be > 100 µM

So for C=CCCCN1CCCC(C)C1=S (stereo unspecified) , the logged TGI turned out to be > 100 µM

So for "O=C1c2cccc(O)c2C(=O)c2c(O)cccc21" , the logged TGI turned out to be > 100 µM

So for "CCOC(=O)c1c(C)nc2c(c1N)/C(=C/c1ccccn1)C(=O)N2Cc1ccccc1" , the logged TGI turned out to be 2.38 µM

So for "COC(=O)c1c(O)ccc2c1c1c(n2Cc2ccccc2OC)C(=O)c2ccccc2C1=O" , the logged TGI turned out to be 3.31 µM

So for "NC(=O)c1ccc([N+](=O)[O-])cc1" , the logged TGI turned out to be > 100 µM

So for COc1ccc(N2C(=O)/C(=C\c3ccccc3)SC2c2cc(OC)c(OC)c(OC)c2)cc1 (stereo unspecified) , the logged TGI turned out to be > 100 µM

So for CC(=O)c1ccccc1NC(=O)C(=O)C(C(=O)c1ccccc1-c1ccccc1)C1OC(=O)c2ccccc21 (stereo unspecified) , the logged TGI turned out to be 46.1 µM

So for "CN(/N=C/c1ccccn1)C1=NCCCN1" , the logged TGI turned out to be > 100 µM

So for "Oc1ccc2ccccc2c1C=NCc1c(O)ccc2ccccc12" , the logged TGI turned out to be > 100 µM

So for COC(=O)CC(C(C(=O)OC)C(=O)OC)N1C(=O)OC(c2ccccc2)C1c1ccccc1 (stereo unspecified) , the logged TGI turned out to be > 100 µM

So for "O=[N+]([O-])c1cc(-[n+]2cc([O-])on2)ccc1Cl" , the logged TGI turned out to be > 100 µM

So for "O=C(CCC(=O)Nc1cccc(C(F)(F)F)c1)CC(=O)c1ccc2ccccc2c1" , the logged TGI turned out to be > 100 µM

So for COc1ccccc1/C=C\C(=O)C1COCN1 (stereo unspecified) , the logged TGI turned out to be 33.2 µM

So for "COc1cc([N+](=O)[O-])c(S(=O)(=O)O)cc1-n1nc(C(=O)Nc2ccccc2)n[n+]1-c1cc(S(=O)(=O)[O-])c([N+](=O)[O-])cc1OC" , the logged TGI turned out to be > 100 µM

So for "CN(C)CCCNC(=O)c1cc(NS(=O)(=O)c2ccc3c(c2)C(=O)c2ccccc2C3=O)cn1C" , the logged TGI turned out to be > 100 µM

So for "C/C(=N\Nc1nc2ccccc2[nH]1)c1cnccn1" , the logged TGI turned out to be > 40.2 µM

So for "CS(=O)(=O)c1cccc(Nc2ncc3cc(-c4ccccc4Cl)ccc3n2)c1" , the logged TGI turned out to be 3.13 µM

So for COc1ccc(C2C(C#N)=C(N)Oc3c2sc2c(Br)cccc32)cc1 (stereo unspecified) , the logged TGI turned out to be 5.39 µM

----------
# System: SR leukemia
# run-description: NCI tumour cell line growth inhibition, 48 h
Field: TGI. Provide a value for each of the compounds that follow.

So for "CC[C@H](C)[C@H](NC(=O)[C@H]1CCCCN1C)C(=O)N(C)[C@H](C[C@@H](OC(C)=O)c1cccc(C(=O)N[C@@H](Cc2ccccc2)C[C@H](C)C(=O)O)n1)C(C)C" , the logged TGI turned out to be > 25 µM

So for "O=C(CSCC(=O)N/N=C\c1ccc(O)c(O)c1O)N/N=C\c1ccc(O)c(O)c1O" , the logged TGI turned out to be 8.18 µM

So for CCOC(=O)C1C(c2ccc(OC)cc2)c2c([nH][nH]c2=O)CC1(C)O (stereo not given) , the logged TGI turned out to be > 100 µM

So for "CO[C@]12S[C@@H]3CCCC[C@@]31C(C)(C)C(=O)N2c1ccccc1" , the logged TGI turned out to be > 100 µM

So for COc1ccccc1[As]=[As]c1ccccc1OC (stereo not given) , the logged TGI turned out to be 0.0707 µM

So for CC(C)OC(=O)[C@H]1ON2O[C@H](O[C@@H]3CCCC[C@H]3c3ccccc3)C([Si](C)(C)c3ccccc3)[C@H]3OC(=O)[C@@H]1C32 (stereo not given in full) , the logged TGI turned out to be 54.2 µM

So for Nc1nc(N)c2ncn(CCOC(c3ccccc3)P(=O)(O)O)c2n1 (stereo not given) , the logged TGI turned out to be > 100 µM

So for "CC(=O)Nc1ccc(S(=O)(=O)N=S(C)C)cc1" , the logged TGI turned out to be > 100 µM

So for "CS(=O)(=O)c1cccc(Nc2ncc3cc(-c4ccccc4Cl)ccc3n2)c1" , the logged TGI turned out to be > 33.3 µM

So for COc1ccc(N2C(=O)/C(=C\c3ccccc3)SC2c2cc(OC)c(OC)c(OC)c2)cc1 (stereo not given) , the logged TGI turned out to be > 100 µM

So for CSc1ccc(NC(=O)C2c3[nH]c4ccccc4c3C3CCC(C(C)(C)C)CC3C2C(=O)O)cc1 (stereo not given) , the logged TGI turned out to be 25.5 µM

So for "CC(=O)NNc1nc(C)c(C(=O)NNC(=O)C(=O)Nc2c([N+](=O)[O-])ccc(C)c2C)s1" , the logged TGI turned out to be > 100 µM

So for "Cc1nc2cc3ccccc3cc2[nH]c1=O" , the logged TGI turned out to be > 100 µM

So for "O=C(NCCOCCOCCOCCNC(=O)c1cc2c(o1)C(=O)c1ccccc1C2=O)NC12CC3CC(CC(C3)C1)C2" , the logged TGI turned out to be 11.7 µM

So for "COc1ccc2c(c1)CCc1cc(OC)ccc1/[N+]([O-])=[N+]\2[O-]" , the logged TGI turned out to be > 42.7 µM

So for "CC1(C)Cc2c(oc3ncnc(N)c23)CS1" , the logged TGI turned out to be > 100 µM

So for "CS(=O)(=O)c1ccc2nc(-c3ccc(O)cc3)sc2c1" , the logged TGI turned out to be 39.8 µM

So for "COc1cc2c(oc(=O)c3cc4cc([Si](C)(C)C)oc4c(OC)c32)c2cccc(O)c12" , the logged TGI turned out to be > 100 µM

So for "CCCCCCCCCCCCCCCC(=O)OCCOCCOCCOCCOCCOC(=O)CCCCCCCCCCCCCCC" , the logged TGI turned out to be > 100 µM

So for "CS(=O)(=O)OCCCSCCSCCCOS(C)(=O)=O" , the logged TGI turned out to be > 100 µM

So for CCCCNC(=S)OCCC(C)CCCC(C)C (stereo not given) , the logged TGI turned out to be > 100 µM

So for "O=C(Nc1ccc(Cl)cc1)c1cc([N+](=O)[O-])ccc1O" , the logged TGI turned out to be 31.6 µM

So for CC1C=CC(C(N)C(=O)O)O1 (stereo not given) , the logged TGI turned out to be > 100 µM

So for "Cc1cc(S(=O)(=O)Nc2nnc3ccccn23)c(S)cc1Cl" , the logged TGI turned out to be > 100 µM

So for "CCc1c(CNC2=NCCN2)c(CC)c(CNC2=NCCN2)c(CC)c1CNC1=NCCN1" , the logged TGI turned out to be > 100 µM

So for "c1ccc(Cn2c(-c3ccc(-c4ccccc4)cc3)cc3ccccc32)cc1" , the logged TGI turned out to be > 100 µM

So for "COc1cc([N+](=O)[O-])c(S(=O)(=O)O)cc1-n1nc(C(=O)Nc2ccccc2)n[n+]1-c1cc(S(=O)(=O)[O-])c([N+](=O)[O-])cc1OC" , the logged TGI turned out to be > 100 µM

So for "c1ccc(-c2n(Cc3ccc4ccccc4c3)c3ccccc3[n+]2Cc2ccc3ccccc3c2)cc1" , the logged TGI turned out to be 1.64 µM

So for "COc1cc(/C=C(\NC(=O)c2ccccc2)c2nc3ncncc3[nH]2)cc(OC)c1OC" , the logged TGI turned out to be > 100 µM

So for C(=C\C(Sc1ccccc1)c1ccccc1)/NNC1=NC(c2ccccc2)C(c2ccccc2)=NN1 (stereo not given) , the logged TGI turned out to be 77.7 µM

So for "C=CCOCn1cc(F)c(=O)[nH]c1=O" , the logged TGI turned out to be > 100 µM

So for "CCCc1nc(Cl)c(Cl)c(Cl)n1" , the logged TGI turned out to be > 50.7 µM

So for "O=S(=O)(O)c1ccc2c(N=Nc3ccc(S(=O)(=O)O)c4ccccc34)c(O)c(S(=O)(=O)O)cc2c1" , the logged TGI turned out to be > 100 µM

So for "c1cc2nnc1SCCSCCSCCSc1ccc(nn1)SCCSCCSCCS2" , the logged TGI turned out to be > 100 µM

So for "[N-]=[N+]=NCCCn1c2c(c3ccc([N+](=O)[O-])cc3c1=O)C(=O)c1cc(-c3ccccc3)ccc1-2" , the logged TGI turned out to be > 100 µM

So for "COc1c(C(C)(C)C)cc(CC2C(=O)C=CC2=O)cc1C(C)(C)C" , the logged TGI turned out to be 19.1 µM

So for "O=C(/C=C/c1ccccn1)c1ccc(OCc2nnc(-c3ccc(Cl)cc3)o2)cc1" , the logged TGI turned out to be 1.93 µM

So for "Cn1c(=O)cc2[nH]c3ccccc3n2c1=O" , the logged TGI turned out to be > 100 µM

So for "C[N+](C)(C)c1cc[c]([Sn]([c]2ccc([N+](C)(C)C)cc2)([c]2ccc([N+](C)(C)C)cc2)[c]2ccc([N+](C)(C)C)cc2)cc1" , the logged TGI turned out to be > 100 µM

So for "Clc1cccc(CNc2c3ccccc3nc3ccccc23)c1" , the logged TGI turned out to be 4.55 µM

The measurements presented in this section are drawn from PubChem BioAssay (NCI).
